All figures here come from patent US20040209914A1.

SYSTEM NAME: Recombinant human MMP-2 (Homo sapiens)
Construct: made in house
Sequence (P08253 110-660): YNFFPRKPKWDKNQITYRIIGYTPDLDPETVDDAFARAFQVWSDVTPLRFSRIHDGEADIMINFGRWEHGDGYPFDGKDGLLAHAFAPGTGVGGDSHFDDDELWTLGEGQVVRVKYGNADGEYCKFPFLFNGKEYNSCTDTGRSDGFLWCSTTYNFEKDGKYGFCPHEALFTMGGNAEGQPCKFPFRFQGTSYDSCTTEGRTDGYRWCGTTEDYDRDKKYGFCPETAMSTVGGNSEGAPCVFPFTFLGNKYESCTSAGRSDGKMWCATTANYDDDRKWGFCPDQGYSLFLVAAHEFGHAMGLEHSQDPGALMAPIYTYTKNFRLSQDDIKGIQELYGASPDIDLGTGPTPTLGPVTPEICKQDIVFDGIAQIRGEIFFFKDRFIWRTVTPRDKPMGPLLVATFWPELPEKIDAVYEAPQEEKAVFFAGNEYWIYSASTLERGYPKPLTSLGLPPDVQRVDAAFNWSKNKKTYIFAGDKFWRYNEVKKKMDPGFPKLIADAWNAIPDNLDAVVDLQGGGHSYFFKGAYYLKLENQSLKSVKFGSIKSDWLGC
EXPERIMENTAL DETAILS: biochemical
CONDITION PARAMETERS: fluorogenic MCA-peptide substrate, pH 7.5, room temperature; read-out: MMP-2 IC50
pIC50: −log10 of the molar value.
# pIC50 per entry
MEASUREMENT KIND: pIC50

compound="C#CCN1CCC(C(=O)NO)(S(=O)(=O)c2ccc(N3CCC(C(=O)c4cccc(OC)c4)CC3)cc2)CC1 [Example 155]" system_name="Recombinant human MMP-2 (Homo sapiens)" readout_value=7.36
compound="Cc1ccc(C(=O)C2CCN(c3ccc(S(=O)(=O)C4(C(=O)NO)CCN(CC5CC5)CC4)cc3)CC2)cc1 [Example 210]" system_name="Recombinant human MMP-2 (Homo sapiens)" readout_value=7.88
compound="COCCN1CCC(C(=O)NO)(S(=O)(=O)c2ccc(N3CCC(C(=O)c4ccc(COC)s4)CC3)cc2)CC1 [Example 252]" system_name="Recombinant human MMP-2 (Homo sapiens)" readout_value=7.84
compound="CC(C)Cc1ccc(C(=O)C2CCN(c3ccc(S(=O)(=O)C4(C(=O)NO)CCN(C5CC5)CC4)cc3)CC2)cc1 [Example 189]" system_name="Recombinant human MMP-2 (Homo sapiens)" readout_value=6.59
compound="COCCN1CCC(C(=O)NO)(S(=O)(=O)c2ccc(N3CCC(C(=O)c4ccc(CN(C)C)s4)CC3)cc2)CC1 [Example 223]" system_name="Recombinant human MMP-2 (Homo sapiens)" readout_value=7.09
compound="O=C(c1ccc(Br)cc1)C1CCN(c2ccc(S(=O)(=O)C3(C(=O)NO)CCOCC3)cc2)CC1 [Example 378]" system_name="Recombinant human MMP-2 (Homo sapiens)" readout_value=7.55
compound="COCCN1CCC(C(=O)NO)(S(=O)(=O)c2ccc(N3CCC(C(=O)c4ccc(CN5CCOCC5)cc4)CC3)cc2)CC1 [Example 240]" system_name="Recombinant human MMP-2 (Homo sapiens)" readout_value=7.07
